From: PubChem BioAssay

- EXPERIMENTAL_SYSTEM: Tumor necrosis factor receptor superfamily member 10B (Homo sapiens)
- RUN_DESCRIPTION: caspase-8 TRAIL sensitization, hit retest, confirmation, cell-based, NB7+caspase-8, with/without TRAIL, luminescence panel (AID 651596)
- ASSAY_CONTEXT: NB7 neuroblastoma + caspase-8, TRAIL sensitization, luminescence viability, with TRAIL, mean of runs, at 10 µM, stronger effect = higher value
Lab note: cut-off is 60%. Strictly less in activity is class 1. Exactly 60% or more is class 0.

COc1cc(NC(=O)Cn2ncc(Cl)c(Cl)c2=O)c(C)cc1[N+](=O)[O-] :: class 0
C=CCn1c(C)cc(C(=O)CN2C(=O)c3ccccc3S2(=O)=O)c1C :: class 0
O=C(/C=C/[C@H]1O[C@@H](n2cnc3c(NC(=O)c4ccccc4)ncnc32)[C@H](O)[C@@H]1O)NCC1CCCO1 (stereo not given in full) :: class 1

Next up:
q: Identify whether the molecule `Cc1ccc(NC(=O)N2CCc3ccccc32)cc1C` records activity below 60%.
a: class 0
